B1: library; numbered along this chain (parent)
chain: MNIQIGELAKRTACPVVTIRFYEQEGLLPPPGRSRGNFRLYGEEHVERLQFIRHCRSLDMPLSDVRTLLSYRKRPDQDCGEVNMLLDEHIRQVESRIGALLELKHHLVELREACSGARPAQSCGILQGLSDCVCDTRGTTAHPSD

Variants of: B1
Experiment: sfGFP reporter fluorescence (15 h) (µM FITC); higher = higher leak
Conditions: library round: Round 0; ligand: none
Decision: sfGFP reporter fluorescence >= 0.06 yields Criterion met, all other cases yield Criterion not met.

- variant string: "S34A"
  class assignment: "Criterion met"
- variant string: "N83R"
  class assignment: "Criterion met"
- variant string: "E94A"
  class assignment: "Criterion met"
- variant string: "R96A"
  class assignment: "Criterion not met"
- variant string: "L28V"
  class assignment: "Criterion met"

Task: sfGFP reporter fluorescence >= 0.06 for E112R ?
Output: Criterion met

Task: I'd appreciate it if you could say whether H89Q has sfGFP reporter fluorescence at least equal to 0.06.
Output: Criterion met

Task: Evaluate V16S : sfGFP reporter fluorescence at minimum 0.06?
Output: Criterion met

Task: // inclusive: sfGFP reporter fluorescence at least 0.06? input: S70A
Output: Criterion met

Task: Please check the record C114V and state if its sfGFP reporter fluorescence is at or above 0.06.
Output: Criterion not met

Task: Does V17A have a reported sfGFP reporter fluorescence of at least 0.06?
Output: Criterion not met

Task: Could you verify whether the entry L107A shows sfGFP reporter fluorescence of no less than 0.06?
Output: Criterion met

Task: Evaluate L129S : sfGFP reporter fluorescence at minimum 0.06?
Output: Criterion not met

Task: Decide: is the reported value of sfGFP reporter fluorescence for P61N D64K L107C G128I equal to or greater than 0.06?
Output: Criterion met

Task: Check if sfGFP reporter fluorescence >= 0.06 (inclusive). Item: L27D
Output: Criterion met

Task: Kindly determine if sfGFP reporter fluorescence recorded for Y22M is above or exactly 0.06.
Output: Criterion met

Task: Textbook exercise: given the entry C134Y , state whether its sfGFP reporter fluorescence is greater than or equal to 0.06.
Output: Criterion met

Task: Check this variant for sfGFP reporter fluorescence at or above 0.06: L58I
Output: Criterion not met

Task: Confirm if sfGFP reporter fluorescence reported for the variant M60L D64K L107C is 0.06 or above.
Output: Criterion met
